These measurements were taken from ChEMBL document CHEMBL3808334.

Here the recorded Activity is given for each entry.
biological target: Albumin (Bos taurus); test: Binding affinity to bovine serum albumin assessed as isoemissive point up to 20 uM by fluorescence spectroscopic analysis relative to control; type: ADME; details: cattle, isolated protein
Sequence (P02769 whole entry): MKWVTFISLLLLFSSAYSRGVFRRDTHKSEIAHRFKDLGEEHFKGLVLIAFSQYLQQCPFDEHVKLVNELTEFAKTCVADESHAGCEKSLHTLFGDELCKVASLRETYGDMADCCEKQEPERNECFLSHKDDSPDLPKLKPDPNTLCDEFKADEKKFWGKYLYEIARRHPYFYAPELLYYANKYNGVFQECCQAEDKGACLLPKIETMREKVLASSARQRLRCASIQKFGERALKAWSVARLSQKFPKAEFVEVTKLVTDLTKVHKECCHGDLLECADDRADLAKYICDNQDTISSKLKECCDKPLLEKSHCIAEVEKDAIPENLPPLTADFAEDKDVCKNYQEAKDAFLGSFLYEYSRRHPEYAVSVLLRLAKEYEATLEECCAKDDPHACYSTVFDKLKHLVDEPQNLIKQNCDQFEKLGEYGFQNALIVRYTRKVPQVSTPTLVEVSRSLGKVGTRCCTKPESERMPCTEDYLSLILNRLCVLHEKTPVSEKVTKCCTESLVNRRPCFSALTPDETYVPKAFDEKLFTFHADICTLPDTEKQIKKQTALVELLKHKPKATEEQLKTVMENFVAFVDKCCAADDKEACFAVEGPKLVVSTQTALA
metric: Activity (nm)

compound_string=NCCNc1nc(Nc2ccc(-c3nc4ccccc4[nH]3)cc2)nc(N2CCOCC2)n1 quantitative_readout=347
compound_string=c1ccc2[nH]c(-c3ccc(Nc4nc(NCCN5CCOCC5)nc(N5CCOCC5)n4)cc3)nc2c1 quantitative_readout=345
compound_string=c1ccc2[nH]c(-c3ccc(Nc4nc(N5CCOCC5)nc(N5CCOCC5)n4)cc3)nc2c1 quantitative_readout=350
compound_string=c1ccc2[nH]c(-c3ccc(Nc4nc(N5CCCC5)nc(N5CCOCC5)n4)cc3)nc2c1 quantitative_readout=341
compound_string=CN1CCN(c2nc(Nc3ccc(-c4nc5ccccc5[nH]4)cc3)nc(N3CCOCC3)n2)CC1 quantitative_readout=339
compound_string=Clc1ccc(-c2nc(Nc3ccc(-c4nc5ccccc5[nH]4)cc3)nc(N3CCOCC3)n2)cc1 quantitative_readout=349
compound_string=c1ccc(CNc2nc(Nc3ccc(-c4nc5ccccc5[nH]4)cc3)nc(N3CCOCC3)n2)cc1 quantitative_readout=352
compound_string=Fc1ccc(-c2nc(Nc3ccc(-c4nc5ccccc5[nH]4)cc3)nc(N3CCOCC3)n2)cc1 quantitative_readout=341
compound_string=c1ccc2[nH]c(-c3ccc(Nc4nc(N5CCCCC5)nc(N5CCOCC5)n4)cc3)nc2c1 quantitative_readout=350
compound_string=c1ccc(-c2nc(Nc3ccc(-c4nc5ccccc5[nH]4)cc3)nc(N3CCOCC3)n2)cc1 quantitative_readout=357
compound_string=OCCN1CCN(c2nc(Nc3ccc(-c4nc5ccccc5[nH]4)cc3)nc(N3CCOCC3)n2)CC1 quantitative_readout=343
compound_string=OCCNc1nc(Nc2ccc(-c3nc4ccccc4[nH]3)cc2)nc(N2CCOCC2)n1 quantitative_readout=340
compound_string=c1ccc2[nH]c(-c3ccc(Nc4nc(NC5CCCCC5)nc(N5CCOCC5)n4)cc3)nc2c1 quantitative_readout=349
